assay: Cytotoxicity against human PC3 cells assessed as growth inhibition after 48 hrs by MTT assay; type: functional, cell-based; conditions: PC-3, 48 h
Consider the following compounds and their measured IC50 readings.
Provide the reading as a plain figure in µM.

Here's what some known entries look like.
{"smiles code": "COc1ccc(-n2c(SCC(=O)Nc3ccc(Cl)cc3)nnc2-c2cc(OC)c(OC)c(OC)c2)cc1", "quantity": "IC50", "numeric value": 6.29}
{"smiles code": "CCSc1nnc(-c2cc(OC)c(OC)c(OC)c2)n1-c1ccc(OC)cc1", "quantity": "IC50", "numeric value": 57.7}
{"smiles code": "CCSc1nnc(-c2cc(OC)c(OC)c(OC)c2)n1-c1ccc(N(C)C)cc1", "quantity": "IC50", "numeric value": 46.2}

We now examine a further compound.
Ask | Indicate its recorded IC50; the compound in question is COc1ccc(C(=O)CSc2nnc(-c3cc(OC)c(OC)c(OC)c3)n2-c2ccc(N(C)C)cc2)cc1
Reply | 22
